Test system: SK-MEL-2
Experiment: NCI tumour cell line growth inhibition, 48 h
Active and inactive are the calls of the source. Cut-off read from the data, not from the text of the source: active = GI50 up to about 1.1 µM and inactive = higher.
Write down the outcome that applies. Available outcomes: true = active, false = inactive

# input Hi, do you know how `O=c1c(Cc2ccccc2)c(-c2ccccc2)[nH]n1C1=NCCN1` came out in this test?
# output false

# input Hi, do you know how `CCN(CC)CCSc1c2cc(OC)ccc2nc2ccc(OC)cc12` came out in this test?
# output false

# input Hi, do you know how `O=[N+]([O-])c1c(Br)cc(Br)c2c1Nc1c(ccc(Cl)c1Cl)S2` came out in this test?
# output false

# input Hi, do you know how `COC(=O)[C@@H]1C[C@]2(CC=C(C)C)c3ccccc3N(S(=O)(=O)c3ccccc3)[C@@H]2N1C(=O)OC` came out in this test?
# output false

# input Hi, do you know how `O=C1NC(=O)c2c1n(Cc1ccccc1)c(=O)n2Cc1ccccc1` came out in this test?
# output false

# input Hi, do you know how `Cc1cn([C@H]2C[C@H](N=[N+]=[N-])[C@@H](CO)O2)c(=O)[nH]c1=O` came out in this test?
# output false

# input Hi, do you know how `COc1ccc(/C=N/NC(=O)c2ccccc2Nc2ccccc2C(=O)N/N=C/c2ccc(OC)cc2)cc1` came out in this test?
# output false

# input Hi, do you know how `COc1ccc(CCCNC(=O)Cc2ccccc2CO)cc1OC` came out in this test?
# output false

# input Hi, do you know how `Cn1cnc(N2CCCC2)c(C#N)c1=S` came out in this test?
# output false

# input Hi, do you know how CCC/C(=N\NC(=O)c1cc2ccccc2cc1O)C(CC)C(=O)CCC(=O)N(Cc1ccccc1)Cc1ccccc1 (stereo not given) came out in this test?
# output false

# input Hi, do you know how `C=C1[C@@H](C)[C@H]2[C@H](Cc3ccccc3)NC(=O)[C@]23OC(=O)/C=C/[C@H](O)CCC[C@@H](C)C/C=C/[C@H]3[C@@H]1O` came out in this test?
# output false

# input Hi, do you know how `CNN1C(=O)c2c(N)c(C#N)c(-c3ccccc3)c(-c3ccccc3)c2C1=O` came out in this test?
# output false

# input Hi, do you know how COc1ccc(NC(C)=O)cc1N1C(=O)/C(=C\c2cccc(Oc3ccccc3)c2)SC1c1ccccc1 (stereo not given) came out in this test?
# output false

# input Hi, do you know how `Cc1cc(S(=O)(=O)Nc2nc(Nc3ccc4ccccc4c3)n[nH]2)c(S)cc1Cl` came out in this test?
# output false

# input Hi, do you know how `COc1ccc(Cc2ccc3nc(O)cc(C)c3c2)cc1S(=O)(=O)O` came out in this test?
# output false

# input Hi, do you know how `O=C1Nc2cccc(C(F)(F)F)c2/C1=N/Nc1ccccc1[N+](=O)[O-]` came out in this test?
# output false

# input Hi, do you know how COc1cc(C2c3cc4c(cc3OC(NCc3ccccc3)C2C)OCO4)cc(OC)c1OC (stereo not given) came out in this test?
# output true

# input Hi, do you know how `Cc1nc(N)nc(N)c1CCCCc1ccccc1` came out in this test?
# output false

# input Hi, do you know how O=C(N/N=C(\c1nc2ccc(Cl)cc2nc1O)C(O)c1ccccc1Cl)c1ccncc1 (stereo not given) came out in this test?
# output false

# input Hi, do you know how `COc1ccc2nc3cc(Cl)ccc3c(SCC(=O)Nc3ccccc3-c3ccccc3NC(=O)CSc3c4ccc(Cl)cc4nc4ccc(OC)cc34)c2c1` came out in this test?
# output false

# input Hi, do you know how `COc1ccc(-c2c3ccccc3c(-c3ccc(OC)cc3)c3ccccc23)cc1` came out in this test?
# output false

# input Hi, do you know how CC1=C(C(=O)OC(C)C)C(c2cccc([N+](=O)[O-])c2)C(C(=O)OC(CO[N+](=O)[O-])CO[N+](=O)[O-])=C(C)N1 (stereo not given) came out in this test?
# output false

# input Hi, do you know how `COC(=O)C1=C(C(=O)OC)SC(=C2SCSC3=C2SC(C(=O)OC)=C(C(=O)OC)C32SC3=C(CCCC3)S2)S1` came out in this test?
# output false

# input Hi, do you know how `O=C(Nc1ccc(Cl)cc1)c1cc2c(cc1Cl)SC(NNCCO)=NS2(=O)=O` came out in this test?
# output false

# input Hi, do you know how `COc1cc2cccc(/N=C\c3cccc(OC)c3OC(C)C)c2cc1OC` came out in this test?
# output false

# input Hi, do you know how CCCCCCCCCC(=O)OCC1(CO)C/C(=C/CC(C(C)C)C(C)C)C(=O)O1 (stereo not given) came out in this test?
# output false

# input Hi, do you know how `Oc1ccc(CNCc2ccccc2)c2cccnc12` came out in this test?
# output true

# input Hi, do you know how `Cc1nc2c(=O)n(-c3ccccc3)c(=O)n(-c3ccccc3)c2o1` came out in this test?
# output false

# input Hi, do you know how `O=[N+]([O-])c1ccc(C2=Nn3cnnc3SC2)o1` came out in this test?
# output false

# input Hi, do you know how `Cc1noc2c1C(=O)CCC2` came out in this test?
# output false

# input Hi, do you know how `CC[C@@]1(O)C(=O)OCc2c1cc1n(c2=O)Cc2c-1nc1ccccc1c2Cl` came out in this test?
# output true

# input Hi, do you know how `CC(C)=CC(=O)CC(=O)C(=O)Nc1ccc(C)c(C)c1` came out in this test?
# output false

# input Hi, do you know how `Cc1cc(NS(=O)(=O)c2ccc(NC(=O)c3cccc4c(NNc5ccc(S(N)(=O)=O)cc5)c5ccccc5nc34)cc2)no1` came out in this test?
# output false

# input Hi, do you know how `C=C1C(OC)=C(OC)C(=O)c2[nH]c3c(OC)cc([N+](=O)[O-])cc3c21` came out in this test?
# output false

# input Hi, do you know how `O=C(O)CN1CCNCCN(CC(=O)O)CCN(CC(=O)O)CCNCC1` came out in this test?
# output false

# input Hi, do you know how O=[N+]([O-])c1ccc(Cl)c(CNc2ncnc3c2ncn3C2CCCCO2)c1 (stereo not given) came out in this test?
# output false

# input Hi, do you know how C=C1C(=O)OC2/C=C(\C)CC(O)/C=C(/CO)CC(OC(=O)/C(C)=C/C)C12 (stereo not given) came out in this test?
# output false

# input Hi, do you know how `c1ccc(-c2cnc3nc4ccccc4nc3n2)cc1` came out in this test?
# output false

# input Hi, do you know how `COc1ccc(C(=O)/C=C2\Nc3cccnc3N\C2=C/C(=O)c2ccc(OC)cc2)cc1` came out in this test?
# output false

# input Hi, do you know how O=C(Cc1ccccc1)NN1C(=O)C(Cl)C1c1ccccc1O (stereo not given) came out in this test?
# output false
